experiment: in vivo; settings: male, C57BL6/j, mouse, po, 20 mg/kg, Brain-Plasma Concentration Ratio, individual mice
measuredAttribute: Kp at 1 h
Number only, no unit.

Please indicate Kp at 1 h recorded for CC(C)Oc1ccc(CN2CCNCC2)cc1-n1c(CN2CCN(C(=O)COc3ccc(Cl)cc3)CC2)nc2ccccc2c1=O [PE]
0.01

###

test: Plasma pharmacokinetics after single IV and PO dose; type: in vivo, male C57BL6/j mice; settings: male, C57BL6/j, mouse, plasma, po, 20 mg/kg, PO 20 mg/kg, 1 hr; read-out: Plasma Concentration, individual mice
measuredAttribute: concentration at 1 hr

Give the reported concentration at 1 hr for this compound. "CC(C)Oc1ccc(CN2CCNCC2)cc1-n1c(CN2CCN(C(=O)COc3ccc(Cl)cc3)CC2)nc2ccccc2c1=O"
1240 ng/mL
